Cited source: ChEMBL document CHEMBL1201862

In this section, each of the compounds is paired with its reported GI50.
- Tested on: NCI-H522
- experimentalProtocol: NCI tumour cell line growth inhibition, 48 h
Calls of active or inactive are those of the source. Rule as the data show it: active = GI50 up to about 1.1 µM and inactive = higher.

compound	GI50
C=C(C(=O)OC)N1C(=O)CC(C)C1=O (stereo not given)	1.9 µM (inactive)
C/C(CC(=O)Nc1cc(Cl)c(Cl)cc1Cl)=N\NS(=O)(=O)c1ccc(C)cc1	17.6 µM (inactive)
O=C1C=C(Nc2nc(O)cc(C(=O)O)n2)c2ccccc2C1=O	> 100 µM (inactive)
O=C(/C=C/C1C(=O)NC(=O)NC1=O)CC(=O)C(=O)Nc1cc(Cl)c(Cl)cc1Cl	> 100 µM (inactive)
Cn1c2c(c3ccccc31)CCN(CCN1CCN(c3cccc(Cl)c3)CC1)C2=O	47.5 µM (inactive)
